Consider the following Ki values measured on Carbonic anhydrase 14 (Homo sapiens).
Sequence (Q9ULX7 whole entry): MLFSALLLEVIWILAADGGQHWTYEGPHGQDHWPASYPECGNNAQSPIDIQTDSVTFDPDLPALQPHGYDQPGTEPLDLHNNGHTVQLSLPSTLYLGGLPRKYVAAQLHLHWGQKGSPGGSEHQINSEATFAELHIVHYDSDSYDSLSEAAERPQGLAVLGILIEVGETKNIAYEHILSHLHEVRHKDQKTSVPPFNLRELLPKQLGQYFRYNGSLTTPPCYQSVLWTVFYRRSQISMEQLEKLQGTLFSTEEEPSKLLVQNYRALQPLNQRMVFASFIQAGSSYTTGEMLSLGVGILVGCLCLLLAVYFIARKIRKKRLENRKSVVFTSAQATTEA
Number in nM, nothing else.

Known results for compounds:
[
  {
    "Molecular String": "CC(=O)OC[C@H]1O[C@@H](NC(=S)NCCc2ccc(S(N)(=O)=O)cc2)[C@H](OC(C)=O)[C@@H](OC(C)=O)[C@@H]1OC(C)=O",
    "Quantity Unit": "nM",
    "Endpoint Result": 8.8
  },
  {
    "Molecular String": "NS(=O)(=O)c1ccc(NC(=S)N[C@@H]2O[C@H](CO)[C@@H](O[C@@H]3O[C@H](CO)[C@H](O)[C@H](O)[C@H]3O)[C@H](O)[C@H]2O)cc1",
    "Quantity Unit": "nM",
    "Endpoint Result": 55
  }
]

Kindly review the next compound as well.
Find the measured Ki of NS(=O)(=O)c1ccc(C(=O)NNC(=S)N[C@@H]2O[C@H](CO)[C@@H](O)[C@H](O)[C@H]2O)cc1 and report it.
8

###

Here's a batch of compounds along with measured Ki for Carbonic anhydrase 12 (Homo sapiens).
Note: unit nM is implicit; provide only the numeric part.

[
  {
    "Molecular String": "CC(=O)OC[C@H]1O[C@@H](NC(=S)Nc2ccc(S(N)(=O)=O)cc2)[C@H](OC(C)=O)[C@@H](OC(C)=O)[C@@H]1OC(C)=O",
    "Outcome Measure": "Ki",
    "Quantity Unit": "nM",
    "Endpoint Result": 7.2
  },
  {
    "Molecular String": "CC(=O)OC[C@H]1O[C@@H](NC(=S)NCc2ccc(S(N)(=O)=O)cc2)[C@H](OC(C)=O)[C@@H](OC(C)=O)[C@@H]1OC(C)=O",
    "Outcome Measure": "Ki",
    "Quantity Unit": "nM",
    "Endpoint Result": 7.5
  },
  {
    "Molecular String": "CC(=O)OC[C@H]1O[C@@H](NC(=S)NCCc2ccc(S(N)(=O)=O)cc2)[C@H](OC(C)=O)[C@@H](OC(C)=O)[C@H]1OC(C)=O",
    "Outcome Measure": "Ki",
    "Quantity Unit": "nM",
    "Endpoint Result": 8.8
  },
  {
    "Molecular String": "CC(=O)OC[C@H]1O[C@@H](NC(=S)NNC(=O)c2ccc(S(N)(=O)=O)cc2)[C@H](OC(C)=O)[C@@H](OC(C)=O)[C@H]1OC(C)=O",
    "Outcome Measure": "Ki",
    "Quantity Unit": "nM",
    "Endpoint Result": 7.8
  }
]

Turning now to a further record.
Report Ki, nothing else, for this compound: NS(=O)(=O)c1ccc(CCNC(=S)N[C@@H]2O[C@H](CO)[C@H](O)[C@H](O)[C@H]2O)cc1
10.2
